- System: Staphylococcus aureus
- PROTOCOL_DETAILS: Antibacterial activity against methicillin-resistant Staphylococcus aureus clinical isolate M17 by CLSI based micro-broth dilution method
- Assay type: functional

| INPUT_SMILES | MEASUREMENT_UNITS | BOUND_OPERATOR | MIC |
| --- | --- | --- | --- |
| C=CCc1cc(-c2ccc(OCCC[N+](C)(C)CC(=O)NCCCC)c(CC=C)c2)c2oc(=S)n(Cc3cc(F)c(F)c(F)c3)c2c1.[Br-] | µg/mL | = | 4 |
| C=CCc1cc(-c2ccc(OCCC[N+](C)(C)CC(=O)NCCCC)c(CC=C)c2)c2oc(=S)n(Cc3cccc(OC)c3)c2c1.[Br-] | µg/mL | = | 8 |
| C=CCc1cc(-c2ccc(OCCC[N+](C)(C)CC(=O)NCCCC)c(CC=C)c2)c2oc(=S)n(Cc3ccc(F)c(Br)c3)c2c1.[Br-] | µg/mL | = | 16 |
| C=CCc1cc(-c2ccc(OCCC[N+](C)(C)CC(=O)NCCCC)c(CC=C)c2)c2oc(=S)n(Cc3ccc(Br)cc3)c2c1.[Br-] | µg/mL | = | 16 |
| C=CCc1cc(-c2ccc(OCCC[N+](C)(C)CC(=O)NCCCC)c(CC=C)c2)c2oc(=S)n(Cc3cc(Br)ccc3F)c2c1.[Br-] | µg/mL | = | 32 |
| C=CCc1cc(-c2ccc(OCCC[N+](C)(C)CC(=O)NCCCC)c(CC=C)c2)c2oc(=S)n(Cc3cccc(Cl)c3Cl)c2c1.[Br-] | µg/mL | = | 64 |
| C=CCc1cc(-c2ccc(OCCC[N+](C)(C)CC(=O)NCCCC)c(CC=C)c2)c2oc(=S)n(Cc3ccc(Br)cc3Br)c2c1.[Br-] | µg/mL | > | 128 |
| C=CCc1cc(-c2ccc(OCCC[N+](C)(C)CC(=O)NCCCC)c(CC=C)c2)c2oc(=S)n(Cc3ccc(F)c(F)c3)c2c1.[Br-] | µg/mL | = | 4 |
